Reported values: IC50 for MDM2 (Homo sapiens, UniProt Q00987), one per item.
Your answer is read as µM, so omit the unit and give the number.

Answered cases to consult:
- COc1ccc(C(N)=O)cc1-c1nc2c(n1C(C)C)[C@]1(C(=O)Nc3cc(Cl)ccc31)N(c1cc(Cl)ccc1C)C2=O: 0.0936
- COc1cc(C(F)(F)F)ncc1-c1nc2c(n1C(C)C)[C@]1(C(=O)Nc3cc(Cl)ccc31)N(c1cc(Cl)ccc1C)C2=O: 0.132

// next item, IC50 requested
Sample `COc1ccncc1-c1nc2c(n1C(C)C)[C@]1(C(=O)Nc3cc(Cl)ccc31)N(c1cc(Cl)ccc1C)C2=O` , system: MDM2 (Homo sapiens, UniProt Q00987). Its IC50 is 0.158

----------
Protocol summary: Pharmacokinetics in ICR mice after intravenous and intragastric administration
Type: in vivo
Experimental parameters: male, mouse, plasma; ICR mice, PO 5 mg/kg vs IV 2 mg/kg, from mean values; read-out: F* (bioavailability)
Measured metric: bioavailability (%)
The answer is to be given in %; state only the numeric part.

Completed entries (count: 4):
- COc1cc(OC)c(-c2nc3c(n2C(C)C)[C@@]2(C(=O)Nc4cc(Cl)ccc42)N(c2cc(Cl)cnc2C)C3=O)cn1: 143
- CCOc1cc(OC)c(-c2nc3c(n2C(C)C)[C@@]2(C(=O)Nc4cc(Cl)ccc42)N(c2cc(Cl)cnc2C)C3=O)cn1: 80.8
- COc1cc(C(C)C)ccc1-c1nc2c(n1C(C)C)[C@@]1(C(=O)Nc3cc(Cl)ccc31)N(c1cc(Cl)ccc1C)C2=O: 63.9
- COc1ccc(-c2nc3c(n2C(C)C)[C@@]2(C(=O)Nc4cc(Cl)ccc42)N(c2cc(Cl)cnc2C)C3=O)c(OC)c1: 31.2

// field: bioavailability; key: `COc1ncc(-c2nc3c(n2C(C)C)[C@@]2(C(=O)Nc4cc(Cl)ccc42)N(c2cc(Cl)ccc2F)C3=O)c(OC)n1` ; value = 94.4

----------
Test system: human osteosarcoma cell line SJSA-1
Protocol summary: Inhibition of proliferation of human osteosarcoma cell line SJSA-1 (DAPI staining, In Cell Analyzer)
Experimental parameters: Homo sapiens, SJSA-1, 72 h, read-out: IC50 (nM), inhibitory activity on proliferation of human osteosarcoma cell line SJSA-1, SJSA-1, incubated 72 h
Hi! Could you tag entries with IC50 below 800 nM as true, and those at or above as false? Much appreciated.

• COc1ccccc1-c1nc2c(n1C(C)C)[C@@]1(C(=O)Nc3cc(Cl)ccc31)N(c1cc(Cl)c(=O)n(C)c1)C2=O = true

# check: IC50 < 800 nM for `COc1cc(C)ccc1-c1nc2c(n1C(C)C)[C@]1(C(=O)Nc3cc(Cl)ccc31)N(c1cc(Cl)ccc1C)C2=O` false

Bench note: check whether `COc1cc(N(C)C)ccc1-c1nc2c(n1C(C)C)[C@@]1(C(=O)Nc3cc(Cl)ccc31)N(c1cc(Cl)ccc1C)C2=O` shows IC50 below 800 nM true

Please determine if `CCOc1cc(OC)c(-c2nc3c(n2C(C)C)[C@@]2(C(=O)Nc4cc(Cl)ccc42)N(c2cccc(Cl)c2)C3=O)cn1` is below 800 nM in terms of IC50. true

IC50 under 800 nM? Item: `COc1cc(OC)c(-c2nc3c(n2C(C)C)[C@@]2(C(=O)Nc4cc(Cl)ccc42)N(c2cc(Cl)ccc2C)C3=O)cn1` true

----------
Protocol summary: Pharmacokinetics in ICR mice after intravenous and intragastric administration
Type: in vivo
Experimental parameters: male, ICR, mouse, plasma, po, 5 mg/kg, ICR mice, PO 5 mg/kg, mean of 3 animals; read-out: t1/2 (converted)
Description: Experimental Example 3 Determination of the Pharmacokinetics of the Mdm2 Inhibitors of the Present Invention in Mice […] The collected plasma was stored at −80° C. before analysis. The plasma sample was analyzed by LC-MS/MS, and the sample was pretreated by protein precipitation method. […] The lowest quantification limit was 1 ng/mL. […]
Measured metric: half-life (h)
Expressed in h, but write only the number.

These solved cases illustrate the format of a correct answer.
* COc1cc(OC(C)C)ncc1-c1nc2c(n1C(C)C)[C@@]1(C(=O)Nc3cc(Cl)ccc31)N(c1cc(Cl)ccc1C)C2=O | 2.18
* COc1ncc(-c2nc3c(n2C(C)C)[C@@]2(C(=O)Nc4cc(Cl)ccc42)N(c2cc(F)cc(Cl)c2)C3=O)c(OC)n1 | 1.86
* COc1nc(C2CC2)ncc1-c1nc2c(n1C(C)C)[C@@]1(C(=O)Nc3cc(Cl)ccc31)N(c1cc(Cl)ccc1C)C2=O | 3.19
* COc1cc(OC)c(-c2nc3c(n2C(C)C)[C@@]2(C(=O)Nc4cc(Cl)ccc42)N(c2cc(Cl)ccc2F)C3=O)cn1 | 1.08
* COc1nc(C2CC2)ncc1-c1nc2c(n1C(C)C)[C@@]1(C(=O)Nc3cc(Cl)ccc31)N(c1cc(Cl)cnc1C)C2=O | 1.26

Entry under test: `COc1cc(C(C)C)ccc1-c1nc2c(n1C(C)C)[C@@]1(C(=O)Nc3cc(Cl)ccc31)N(c1cc(Cl)ccc1C)C2=O` . Its half-life was 2.16

GET /value?item= `COc1cc(OC(C)C)ncc1-c1nc2c(n1C(C)C)[C@@]1(C(=O)Nc3cc(Cl)ccc31)N(c1cc(Cl)cnc1C)C2=O` &field=half-life returns 1.84

Recorded result, `COc1ccc(-c2nc3c(n2C(C)C)[C@@]2(C(=O)Nc4cc(Cl)ccc42)N(c2cc(Cl)cnc2C)C3=O)c(OC)c1` , half-life: 3.09

----------
Protocol summary: Pharmacokinetics in ICR mice after intravenous and intragastric administration
Assay type: in vivo
Experimental parameters: male, ICR, mouse, plasma, iv, 2 mg/kg, ICR mice, IV 2 mg/kg, mean of 3 animals
Values of AUC(0-inf) greater than or equal to 5000 ng·h/mL map to yes; values below map to no.

Field: example entries. Status: answers known.
* COc1ncc(-c2nc3c(n2C(C)C)[C@@]2(C(=O)Nc4cc(Cl)ccc42)N(c2cc(F)cc(Cl)c2)C3=O)c(OC)n1 | no
* COc1cc(OC(C)C)ncc1-c1nc2c(n1C(C)C)[C@@]1(C(=O)Nc3cc(Cl)ccc31)N(c1cc(Cl)cnc1C)C2=O | yes
* COc1cc(OC)c(-c2nc3c(n2C(C)C)[C@@]2(C(=O)Nc4cc(Cl)ccc42)N(c2cc(Cl)cnc2C)C3=O)cn1 | no
* COc1ccc(-c2nc3c(n2C(C)C)[C@@]2(C(=O)Nc4cc(Cl)ccc42)N(c2cc(Cl)cnc2C)C3=O)c(OC)c1 | no

Read the next record carefully.
Please check the record `COc1nc(C2CC2)ncc1-c1nc2c(n1C(C)C)[C@@]1(C(=O)Nc3cc(Cl)ccc31)N(c1cc(Cl)ccc1C)C2=O` and state if its AUC(0-inf) is at or above 5000 ng·h/mL. yes

----------
Protocol summary: Pharmacokinetics in ICR mice after intravenous and intragastric administration
Type: in vivo
Experimental parameters: male, ICR, mouse, plasma, po, 5 mg/kg, oral intragastric administration 5 mg/kg; read-out: AUC0-t
# AUC(0-t) listing for each entry below
Give just the numeric value; ng·h/mL need not be written.

Some entries whose results are on file:
• CCOc1cc(OC)c(-c2nc3c(n2C(C)C)[C@@]2(C(=O)Nc4cc(Cl)ccc42)N(c2cc(Cl)ccc2F)C3=O)cn1 [Example S-98] = 26200
• COc1ncc(-c2nc3c(n2C(C)C)[C@@]2(C(=O)Nc4cc(Cl)ccc42)N(c2cccc(Cl)c2)C3=O)c(OC)n1 [Example S-1] = 1340
• CCOc1cc(OC)c(-c2nc3c(n2C(C)C)[C@@]2(C(=O)Nc4cc(Cl)ccc42)N(c2cc(Cl)ccc2C)C3=O)cn1 [Example S-72] = 34100
• COc1nc(C2CC2)ncc1-c1nc2c(n1C(C)C)[C@@]1(C(=O)Nc3cc(Cl)ccc31)N(c1cc(Cl)ccc1C)C2=O [Example S-121] = 41300
• COc1cc(OC)c(-c2nc3c(n2C(C)C)[C@@]2(C(=O)Nc4cc(Cl)ccc42)N(c2cccc(Cl)c2)C3=O)cn1 [Example S-115] = 3000

Sure, the documented AUC(0-t) for COc1cc(OC)c(-c2nc3c(n2C(C)C)[C@@]2(C(=O)Nc4cc(Cl)ccc42)N(c2cc(Cl)ccc2C)C3=O)cn1 [Example S-11] is 9370

----------
Protocol summary: Pharmacokinetics in ICR mice after intravenous and intragastric administration
Assay type: in vivo
Experimental parameters: male, ICR, mouse, plasma, iv, 2 mg/kg, ICR mice, IV 2 mg/kg, mean of 3 animals
Measured metric: clearance (mL/min/kg)
Answer with a number only, understood to be in mL/min/kg.

Example results:
• CCOc1cc(OC)c(-c2nc3c(n2C(C)C)[C@@]2(C(=O)Nc4cc(Cl)ccc42)N(c2cc(Cl)cnc2C)C3=O)cn1 [Example S-96] = 8.57
• COc1nc(N(C)C)ncc1-c1nc2c(n1C(C)C)[C@@]1(C(=O)Nc3cc(Cl)ccc31)N(c1cc(Cl)cnc1C)C2=O [Example S-135] = 4.32
• COc1cc(OC)c(-c2nc3c(n2C(C)C)[C@@]2(C(=O)Nc4cc(Cl)ccc42)N(c2cccc(Cl)c2)C3=O)cn1 [Example S-115] = 12.8

Reported clearance for COc1nc(OCCF)ncc1-c1nc2c(n1C(C)C)[C@@]1(C(=O)Nc3cc(Cl)ccc31)N(c1cc(Cl)ccc1C)C2=O [Example S-140] was 2.43

In plain terms, COc1cc(C(C)C)ccc1-c1nc2c(n1C(C)C)[C@@]1(C(=O)Nc3cc(Cl)ccc31)N(c1cc(Cl)ccc1C)C2=O [Example S-32] has a documented clearance of 6.52

Sure, the documented clearance for COc1ccc(-c2nc3c(n2C(C)C)[C@@]2(C(=O)Nc4cc(Cl)ccc42)N(c2cc(Cl)cnc2C)C3=O)c(OC)c1 [Example S-61] is 7.44
